- measurementTarget: Glucagon-like peptide 1 receptor (Homo sapiens)
- Sequence (P43220 whole entry): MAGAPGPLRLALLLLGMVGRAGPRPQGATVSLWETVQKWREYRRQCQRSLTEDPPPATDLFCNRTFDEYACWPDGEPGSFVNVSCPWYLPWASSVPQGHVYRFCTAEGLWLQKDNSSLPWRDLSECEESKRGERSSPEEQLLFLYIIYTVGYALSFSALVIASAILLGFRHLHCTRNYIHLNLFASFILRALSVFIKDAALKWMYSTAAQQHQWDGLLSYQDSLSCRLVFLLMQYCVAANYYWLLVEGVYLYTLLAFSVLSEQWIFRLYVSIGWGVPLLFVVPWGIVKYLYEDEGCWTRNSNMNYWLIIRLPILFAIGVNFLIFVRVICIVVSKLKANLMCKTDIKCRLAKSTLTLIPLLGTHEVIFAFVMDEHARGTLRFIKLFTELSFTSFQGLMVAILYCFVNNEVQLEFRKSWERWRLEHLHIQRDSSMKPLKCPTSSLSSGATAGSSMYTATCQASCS
- experimentNotes: Antagonist activity at human GLP1R expressed in CHO cells assessed as inhibition of glucagon-induced cAMP accumulation
measure: IC50

For the compound O=C(O)CCNC(=O)c1ccc(Cn2nc(-c3cc(Cl)cc(Cl)c3)cc2-c2ccc(OC(F)(F)F)cc2)cc1 , what IC50 is on record?
> 10 µM

----------
- measurementTarget: Uncharacterized protein (Canis lupus familiaris, UniProt A0A8I3N355)
- Sequence (A0A8I3N355 whole entry): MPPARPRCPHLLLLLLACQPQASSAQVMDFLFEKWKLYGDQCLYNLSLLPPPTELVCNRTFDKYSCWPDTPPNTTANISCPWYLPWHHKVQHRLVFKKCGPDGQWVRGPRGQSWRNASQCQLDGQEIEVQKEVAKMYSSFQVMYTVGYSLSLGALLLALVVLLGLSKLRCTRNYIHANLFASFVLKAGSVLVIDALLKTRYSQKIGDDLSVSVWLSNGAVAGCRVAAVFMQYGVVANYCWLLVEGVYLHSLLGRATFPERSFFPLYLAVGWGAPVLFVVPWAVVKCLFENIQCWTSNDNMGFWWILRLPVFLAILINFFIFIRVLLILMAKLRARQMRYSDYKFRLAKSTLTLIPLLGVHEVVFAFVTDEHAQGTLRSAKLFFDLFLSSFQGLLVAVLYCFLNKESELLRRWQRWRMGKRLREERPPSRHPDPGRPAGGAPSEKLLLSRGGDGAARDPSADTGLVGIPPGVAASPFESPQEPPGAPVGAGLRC
- experimentNotes: Antagonist activity at dog GCGR assessed as inhibition of glucagon-induced cAMP accumulation
measure: pIC50
// pIC50 here means minus log10 of the molar concentration (mol/L)

For the compound O=C(O)CCNC(=O)c1ccc(Cn2nc(-c3cc(Cl)cc(Cl)c3)cc2-c2ccc(OC(F)(F)F)cc2)cc1 , what pIC50 is on record?
6.40

----------
- experimentNotes: Cmax in dog at 2 mg/kg, po
- Type: ADME, organism-based, Canis lupus familiaris
- Set-up: dose 2 mg/kg, route oral
- conditionInfo: in vivo
measure: Cmax (µM)
Dear colleague, please return just the value in µM, with no unit written.

For the molecule O=C(O)CCNC(=O)c1ccc(Cn2nc(-c3cc(Cl)cc(Cl)c3)cc2-c2ccc(OC(F)(F)F)cc2)cc1 , what Cmax is on record?
7.7

----------
- experimentNotes: Bioavailability in rhesus monkey at 0.5 mg/kg, iv and 2 mg/kg, po
- Type: ADME, organism-based, Macaca mulatta
- conditionInfo: in vivo
measure: bioavailability (%)
Dear colleague, please return just the value in %, with no unit written.

For the molecule O=C(O)CCNC(=O)c1ccc(Cn2nc(-c3cc(Cl)cc(Cl)c3)cc2-c2ccc(OC(F)(F)F)cc2)cc1 , what bioavailability is on record?
68

----------
- experimentNotes: Drug level in blood of transgenic mouse expressing human GCGR at 30 mg/kg, po after 120 mins
- Type: ADME, organism-based
- Parameters: dose 30 mg/kg, route oral
- conditionInfo: read-out: Drug uptake
measure: concentration at 2 h (µM)
Dear colleague, please return just the value in µM, with no unit written.

For the compound O=C(O)CCNC(=O)c1ccc(Cn2nc(-c3cc(Cl)cc(Cl)c3)cc2-c2ccc(OC(F)(F)F)cc2)cc1 , what concentration at 2 h is on record?
14.2

----------
- experimentNotes: Volume of distribution at steady state in mouse at 1 mg/kg, iv and 2 mg/kg, po
- Format: ADME, organism-based
- conditionInfo: in vivo, read-out: Vdss
measure: Vd

For the molecule O=C(O)CCNC(=O)c1ccc(Cn2nc(-c3cc(Cl)cc(Cl)c3)cc2-c2ccc(OC(F)(F)F)cc2)cc1 , what Vd is on record?
1.1 L/kg

----------
- experimentNotes: Plasma concentration in dog at 1 to 10 mg/kg, iv after 30 mins
- Type: ADME, organism-based, Canis lupus familiaris
- Set-up: dose 1-10 mg/kg, route intravenous
measure: concentration at 0.5 h (µM)
Dear colleague, please return just the value in µM, with no unit written.

For the compound O=C(O)CCNC(=O)c1ccc(Cn2nc(-c3cc(Cl)cc(Cl)c3)cc2-c2ccc(OC(F)(F)F)cc2)cc1 , what concentration at 0.5 h is on record?
96

----------
- experimentNotes: Plasma concentration in rhesus monkey at 0.3 mg/kg, po after 4 hrs
- Assay type: ADME, organism-based, Macaca mulatta
- Design: dose 0.3 mg/kg, route oral
measure: concentration at 4 h (nM)
Dear colleague, please return just the value in nM, with no unit written.

For the compound O=C(O)CCNC(=O)c1ccc(Cn2nc(-c3cc(Cl)cc(Cl)c3)cc2-c2ccc(OC(F)(F)F)cc2)cc1 , what concentration at 4 h is on record?
130

----------
- measurementTarget: Gastric inhibitory polypeptide receptor (Homo sapiens)
- Sequence (P48546 whole entry): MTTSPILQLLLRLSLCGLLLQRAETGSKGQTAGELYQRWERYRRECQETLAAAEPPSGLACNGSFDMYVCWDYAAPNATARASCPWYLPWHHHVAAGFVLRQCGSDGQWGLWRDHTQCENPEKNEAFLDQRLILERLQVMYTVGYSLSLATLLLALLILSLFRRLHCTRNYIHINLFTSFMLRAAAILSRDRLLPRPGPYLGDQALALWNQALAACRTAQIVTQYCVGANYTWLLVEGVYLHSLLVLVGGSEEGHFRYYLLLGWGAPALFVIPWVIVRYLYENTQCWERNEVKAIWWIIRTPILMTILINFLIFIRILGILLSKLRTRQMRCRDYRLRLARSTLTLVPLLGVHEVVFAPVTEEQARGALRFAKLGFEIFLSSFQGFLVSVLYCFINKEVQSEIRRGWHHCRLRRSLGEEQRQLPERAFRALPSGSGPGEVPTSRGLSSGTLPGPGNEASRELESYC
- experimentNotes: Antagonist activity at human GIPR expressed in CHO cells assessed as inhibition of glucagon-induced cAMP accumulation
measure: pIC50
// pIC50 here means minus log10 of the molar concentration (mol/L)

O=C(O)CCNC(=O)c1ccc(Cn2nc(-c3ccc(OC(F)(F)F)cc3)cc2C2CCCCC2)cc1: 5.55

Shift focus to the following entry.
For the compound CC(c1ccc(C(=O)Nc2nnn[nH]2)cc1)n1nc(-c2ccc(OC(F)(F)F)cc2)cc1-c1ccc(OC(F)(F)F)cc1 (centres undefined) , what pIC50 is on record?
5.22

----------
- experimentNotes: Plasma clearance in rat at 1 mg/kg, iv and 2 mg/kg, po
- Type: ADME, organism-based
measure: clearance (mL/min/kg)
Dear colleague, please return just the value in mL/min/kg, with no unit written.

For the molecule O=C(O)CCNC(=O)c1ccc(Cn2nc(-c3cc(Cl)cc(Cl)c3)cc2-c2ccc(OC(F)(F)F)cc2)cc1 , what clearance is on record?
1.6

----------
- Test system: Mus musculus
- experimentNotes: Dose normalized AUC in po dosed mouse
- Assay type: ADME, organism-based
- conditionInfo: in vivo
measure: AUC (µM·kg·h/mg)
Dear colleague, please return just the value in µM·kg·h/mg, with no unit written.

Param readout = AUC; param system = Mus musculus; param query = O=C(Nc1nn[nH]n1)c1ccc(Cn2nc(-c3ccc(OC(F)(F)F)cc3)cc2C2CCCCC2)cc1 ; response: value
1.5

----------
- experimentNotes: Cmax in rat at 2 mg/kg, po
- Type: ADME, organism-based
- Design: dose 2 mg/kg, route oral
- conditionInfo: in vivo
measure: Cmax (nM)
Dear colleague, please return just the value in nM, with no unit written.

For the compound O=C(O)CCNC(=O)c1ccc(Cn2nc(-c3cc(Cl)cc(Cl)c3)cc2-c2ccc(OC(F)(F)F)cc2)cc1 , what Cmax is on record?
1600

----------
- measurementTarget: Nuclear receptor subfamily 1 group I member 2 (Homo sapiens)
- Sequence (O75469 whole entry): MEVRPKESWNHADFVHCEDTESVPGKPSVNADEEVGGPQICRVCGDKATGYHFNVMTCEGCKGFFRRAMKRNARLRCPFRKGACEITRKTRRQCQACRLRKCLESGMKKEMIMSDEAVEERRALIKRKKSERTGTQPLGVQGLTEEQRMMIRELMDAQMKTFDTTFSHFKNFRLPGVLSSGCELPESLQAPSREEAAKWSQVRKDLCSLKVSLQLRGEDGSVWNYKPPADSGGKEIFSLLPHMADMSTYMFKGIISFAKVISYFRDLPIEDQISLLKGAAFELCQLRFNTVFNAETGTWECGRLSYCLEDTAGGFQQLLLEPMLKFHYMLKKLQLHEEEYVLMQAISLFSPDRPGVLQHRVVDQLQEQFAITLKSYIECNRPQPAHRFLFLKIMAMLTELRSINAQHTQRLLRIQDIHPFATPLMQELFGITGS
- experimentNotes: Activity at human PXR
measure: EC50

For the compound O=C(O)CCNC(=O)c1ccc(Cn2nc(-c3cc(Cl)cc(Cl)c3)cc2-c2ccc(OC(F)(F)F)cc2)cc1 , what EC50 is on record?
> 25 µM

----------
- measurementTarget: UniProt P30082
- Sequence (P30082 whole entry): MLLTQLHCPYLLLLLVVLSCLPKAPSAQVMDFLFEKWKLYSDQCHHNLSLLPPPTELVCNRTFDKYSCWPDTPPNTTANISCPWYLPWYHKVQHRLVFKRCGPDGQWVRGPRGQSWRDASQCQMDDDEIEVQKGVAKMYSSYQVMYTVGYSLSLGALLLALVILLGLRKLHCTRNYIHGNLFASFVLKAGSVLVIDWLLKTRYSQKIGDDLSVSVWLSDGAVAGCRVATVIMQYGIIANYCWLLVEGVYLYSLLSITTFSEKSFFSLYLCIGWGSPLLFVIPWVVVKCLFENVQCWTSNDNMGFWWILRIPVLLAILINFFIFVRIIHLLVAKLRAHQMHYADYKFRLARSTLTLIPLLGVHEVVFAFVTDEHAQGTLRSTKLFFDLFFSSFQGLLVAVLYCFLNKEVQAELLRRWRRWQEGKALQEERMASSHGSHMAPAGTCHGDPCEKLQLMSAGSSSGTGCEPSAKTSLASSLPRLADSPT
- experimentNotes: Antagonist activity at rat GCGR assessed as inhibition of glucagon-induced cAMP accumulation
measure: pIC50
// pIC50 here means minus log10 of the molar concentration (mol/L)

Param readout = pIC50; param system = UniProt P30082; param query = O=C(O)CCNC(=O)c1ccc(Cn2nc(-c3cc(Cl)cc(Cl)c3)cc2-c2ccc(OC(F)(F)F)cc2)cc1 ; response: value
5.59

----------
- measurementTarget: Glucagon receptor (Homo sapiens, UniProt P47871)
- Sequence (P47871 whole entry): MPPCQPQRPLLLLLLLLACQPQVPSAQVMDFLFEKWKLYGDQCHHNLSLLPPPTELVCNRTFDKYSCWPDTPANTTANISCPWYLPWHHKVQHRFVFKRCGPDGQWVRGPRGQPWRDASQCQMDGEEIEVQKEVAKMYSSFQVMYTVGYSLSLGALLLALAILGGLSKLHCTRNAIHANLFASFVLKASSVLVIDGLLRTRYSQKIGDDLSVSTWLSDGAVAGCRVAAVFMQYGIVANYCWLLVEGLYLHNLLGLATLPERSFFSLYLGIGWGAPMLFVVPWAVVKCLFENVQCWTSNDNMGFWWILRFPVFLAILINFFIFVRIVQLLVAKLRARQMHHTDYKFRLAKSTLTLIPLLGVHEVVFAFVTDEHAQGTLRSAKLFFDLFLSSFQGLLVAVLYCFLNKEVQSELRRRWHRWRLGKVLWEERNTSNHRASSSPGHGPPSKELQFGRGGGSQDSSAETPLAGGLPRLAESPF
- experimentNotes: Displacement of [125I]glucagon from human GCGR expressed in CHO cells
- Type: cell-based
IC50 under 500 nM gets YES, anything at or over 500 nM gets NO.

See these solved cases before continuing.
CS(=O)(=O)c1ccc(-c2cc(-c3ccc(OC(F)(F)F)cc3)n(Cc3ccc(C(=O)Nc4nnn[nH]4)cc3)n2)cc1: NO
O=C(Nc1nn[nH]n1)c1ccc(Cc2cnn(-c3ccc(OC(F)(F)F)cc3)c2C2CCCCC2)cc1: NO
CC(c1ccc(C(=O)NCCC(=O)O)cc1)n1nc(-c2ccc(OC(F)(F)F)cc2)cc1-c1ccc(OC(F)(F)F)cc1 (stereo unspecified): YES
O=C(O)CCNC(=O)c1ccc(Cc2cnn(-c3ccc(OC(F)(F)F)cc3)c2C2CCCCC2)cc1: NO
O=C(Nc1nn[nH]n1)c1ccc(Cn2nc(-c3ccc(OC(F)(F)F)cc3)cc2C2CCCCC2)cc1: YES

Is it true that IC50 reported for CC(C)(C)[C@H]1CC[C@H](c2cc(-c3ccc(OC(F)(F)F)cc3)nn2Cc2ccc(C(=O)NCCC(=O)O)cc2)CC1 is less than 500 nM?
YES

Is it true that IC50 reported for CC(C)(C)[C@H]1CC[C@H](c2cc(-c3ccc(OC(F)(F)F)cc3)nn2Cc2ccc(C(=O)Nc3nnn[nH]3)cc2)CC1 is less than 500 nM?
YES

Is it true that IC50 reported for O=C(O)CCNC(=O)c1cccc(Cn2nc(-c3ccc(OC(F)(F)F)cc3)cc2-c2ccc(OC(F)(F)F)cc2)c1 is less than 500 nM?
YES
